Molecular target: T1, formyl peptide receptor 2 (FPR2) (UniProt P25090 1-351, limits assumed)
T1 sequence (looked up): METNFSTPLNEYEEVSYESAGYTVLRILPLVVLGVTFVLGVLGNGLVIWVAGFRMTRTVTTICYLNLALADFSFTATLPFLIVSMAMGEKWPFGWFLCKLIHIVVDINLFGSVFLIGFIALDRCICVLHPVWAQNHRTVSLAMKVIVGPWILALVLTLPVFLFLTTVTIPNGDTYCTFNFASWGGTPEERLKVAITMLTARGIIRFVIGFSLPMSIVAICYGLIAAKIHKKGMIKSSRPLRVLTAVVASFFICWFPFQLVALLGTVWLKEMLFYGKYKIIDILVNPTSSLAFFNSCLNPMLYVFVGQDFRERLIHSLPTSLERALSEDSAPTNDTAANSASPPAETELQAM
Experiment: cell-based or functional assay
Recorded EC50 for [Ca2+] values for a group of binders are listed next.

# annotated cases, reported EC50 for [Ca2+] shown
RWRYFYM (HELM PEPTIDE1{R.W.R.Y.F.Y.[dM].[am]}$$$$V2.0; N-terminus assumed; SMILES CSCC[C@@H](NC(=O)[C@H](Cc1ccc(O)cc1)NC(=O)[C@H](Cc1ccccc1)NC(=O)[C@H](Cc1ccc(O)cc1)NC(=O)[C@H](CCCNC(=N)N)NC(=O)[C@H](Cc1c[nH]c2ccccc12)NC(=O)[C@@H](N)CCCNC(=N)N)C(N)=O) [peptide of SEQ ID NO 156]
< 10 nM
MKYWYM (HELM PEPTIDE1{M.K.Y.W.Y.[dM].[am]}$$$$V2.0; N-terminus assumed; SMILES CSCC[C@H](N)C(=O)N[C@@H](CCCCN)C(=O)N[C@@H](Cc1ccc(O)cc1)C(=O)N[C@@H](Cc1c[nH]c2ccccc12)C(=O)N[C@@H](Cc1ccc(O)cc1)C(=O)N[C@H](CCSC)C(N)=O) [peptide of SEQ ID NO 89]
< 10 nM
RWRYWVM (HELM PEPTIDE1{R.W.R.Y.W.V.[dM].[am]}$$$$V2.0; N-terminus assumed; SMILES CSCC[C@@H](NC(=O)[C@@H](NC(=O)[C@H](Cc1c[nH]c2ccccc12)NC(=O)[C@H](Cc1ccc(O)cc1)NC(=O)[C@H](CCCNC(=N)N)NC(=O)[C@H](Cc1c[nH]c2ccccc12)NC(=O)[C@@H](N)CCCNC(=N)N)C(C)C)C(N)=O) [peptide of SEQ ID NO 101]
< 10 nM
RMRYWVM (HELM PEPTIDE1{[ac].R.M.R.Y.W.V.[dM].[am]}$$$$V2.0; SMILES CSCC[C@H](NC(=O)[C@H](CCCNC(=N)N)NC(C)=O)C(=O)N[C@@H](CCCNC(=N)N)C(=O)N[C@@H](Cc1ccc(O)cc1)C(=O)N[C@@H](Cc1c[nH]c2ccccc12)C(=O)N[C@H](C(=O)N[C@H](CCSC)C(N)=O)C(C)C) [peptide of SEQ ID NO 104]
< 10 nM

### Prompt What value of measured EC50 for [Ca2+] is listed for WRYKYM (HELM PEPTIDE1{W.R.Y.K.Y.[dM].[am]}$$$$V2.0; N-terminus assumed; SMILES CSCC[C@@H](NC(=O)[C@H](Cc1ccc(O)cc1)NC(=O)[C@H](CCCCN)NC(=O)[C@H](Cc1ccc(O)cc1)NC(=O)[C@H](CCCNC(=N)N)NC(=O)[C@@H](N)Cc1c[nH]c2ccccc12)C(N)=O) [peptide of SEQ ID NO 35] ?
### Response < 10 nM
